This section presents binders with their documented MFI pH 7.4 values.
Molecular target: T1, human CD3 on CD3+ Jurkat cells (human, UniProt P07766 23-207)
T1 construct: whole, on cells; Native CD3 complex on cells; the other CD3 chains are not specified for this assay; also called Human CD3+ Jurkat
T1 sequence (P07766 23-207): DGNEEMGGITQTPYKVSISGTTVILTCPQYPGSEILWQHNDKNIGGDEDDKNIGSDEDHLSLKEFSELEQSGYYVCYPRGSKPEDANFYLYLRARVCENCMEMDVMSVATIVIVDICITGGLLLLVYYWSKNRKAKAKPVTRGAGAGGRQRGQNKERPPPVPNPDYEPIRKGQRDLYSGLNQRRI
Assay: flow cytometry, 100 nM IgG on CD3+ Jurkat cells, pH 7.4
Method: Specificity of the anti-CD3 antibodies for human CD3+ Jurkat cells compared to CHO-S cells at pH 6.0 and 7.4 was determined using a FACS cell binding assay. Briefly, CD3+ human Jurkat cells and CHO-S cells were thawed and washed with cold PBSF buffer, pH 7.4 (PBS+0.1% BSA, pH 7.4). About 200,000 cells were aliquoted per well of a 96-well plate and pelleted by centrifugation (5 minutes at 500×g). […] Binding was analyzed on FACS Canto II. Cell binding assays. […] Binding was analyzed on FACS Canto II.
# value in MFI; strip the unit string

Example entries begin here.
>>> numeric_readout("SAD10320_P04_G10 (ADI-48658) (antibody, V domains shown, IgG; also called Ab108) VH: QVQLVQSGAEVKKPGASVKVSCKASGFNIKDYYMHWVRQAPGQRLEWMGWIDLENANTIYDAKFQGRVTITRDTSASTAYMELSSLRSEDTAVYYCARDAYGHDFYDVWGQGTLVTVSS VL: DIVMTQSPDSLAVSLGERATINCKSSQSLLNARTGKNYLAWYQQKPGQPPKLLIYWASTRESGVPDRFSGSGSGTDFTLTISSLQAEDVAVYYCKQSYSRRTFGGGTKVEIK")
316
>>> numeric_readout("SAD10319_P02_G06 (ADI-48632) (antibody, V domains shown, IgG; also called Ab15) VH: QVQLVQSGAEVKKPGASVKVSCKASGYTFTSYAMHWVRQAPGQRLEWMGWINPDTGATVYSQKFQGRVTITRDTSASTAYMELSSLRSEDTAVYYCARDAYHHYFYDVWGQGTLVTVSS VL: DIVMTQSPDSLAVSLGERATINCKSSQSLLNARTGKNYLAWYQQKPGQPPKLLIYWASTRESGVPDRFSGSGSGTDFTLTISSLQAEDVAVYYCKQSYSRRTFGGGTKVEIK")
107
>>> numeric_readout("SAD10320_P01_F03 (ADI-48647) (antibody, V domains shown, IgG; also called Ab65) VH: QVQLVQSGAEVKKPGASVKVSCKASGFNIKDYYMHWVRQAPGQRLEWMGWIDLENANTIYDAKFQGRVTITRDTSASTAYMELSSLRSEDTAVYYCARDAYPHYFYDVWGQGTLVTVSS VL: DIVMTQSPDSLAVSLGERATINCKSSQSLLNARTGKNYLAWYQQKPGQPPKLLIYWASTRESGVPDRFSGSGSGTDFTLTISSLQAEDVAVYYCKQSYLHRTFGGGTKVEIK")
141

Measured MFI pH 7.4 of SAD10318_P02_A05 (ADI-48595) (antibody, V domains shown, IgG; also called Ab178) VH: QVQLVQSGTEVKKPGASVKVSCKASGFNIKDYYMHWVRQAPGQRLEWMGWIDLENANTIYDAKFQGRVTITRDTSASTAYMELSSLRSEDTAVYYCARDAYHRYFYDHWGQGTLVTVSS VL: DIVMTQSPDSLAVSLGERATINCKSSQSLLNSHTGKNYLAWYQQKPGQPPKLLIYWASTRESGVPDRFSGSGSGTDFTLTISSLQAEDVAVYYCKQSYSRRTFGGGTKVEIK : 4960

Measured MFI pH 7.4 of SAD10318_P01_G03 (ADI-48590) (antibody, V domains shown, IgG; also called Ab91) VH: QVQLVQSGAEVKKPGASVKVSCKASGFNIKDYYMHWVRQAPGQRLEWMGWIDLENANTIYDAKFQGRVTITRDTSASTAYMELSSLRSEDTAVYYCAHDAYGHYFYDVWGQGTLVTVSS VL: DIVMTQSPDSLAVSLGERATINCKSSQSLLNAHTGHNYLAWYQQKPGQPPKLLIYWASTRESGVPDRFSGSGSGTDFTLTISSLQAEDVAVYYCKQSYHHRTFGGGTKVEIK : 32

Sourced from patent US20220380463A1
